Cited source: ChEMBL document CHEMBL1132750

Target: Phosphodiesterase 4 (Homo sapiens, UniProt P27815+Q08499+Q07343+Q08493)
Assay: Inhibition of Phosphodiesterase 4 from human neutrophils
Type: protein assay
Returns the class for an entry based on its IC50. Class ranges: bottom range = under 30 nM, center range = from 30 nM up to 60 nM, top range = 60 nM and over

[[record]]
compound = "COc1ccc2c(Cc3c(Cl)cncc3Cl)nncc2c1OCCCCCc1ccccc1"
class = "center range"

[[record]]
compound = "COc1ccc2c(Cc3c(Cl)cncc3Cl)nncc2c1C#CCCCc1ccccc1"
class = "bottom range"

[[record]]
compound = "COc1ccc2c(Cc3c(Cl)cncc3Cl)n[n+]([O-])cc2c1OC1CCCC1"
class = "center range"

[[record]]
compound = "COc1ccc2c(Cc3c(Cl)cncc3Cl)nncc2c1/C=C/CCCc1ccccc1"
class = "bottom range"

[[record]]
compound = "COc1cc2cnnc(Cc3c(Cl)cncc3Cl)c2cc1OC1CCCC1"
class = "top range"

[[record]]
compound = "COc1ccc2c(Cc3c(Cl)cncc3Cl)nncc2c1OC1CCCC1"
class = "center range"

[[record]]
compound = "COc1ccc2c(Cc3c(Cl)cncc3Cl)nncc2c1OC1CCOC1 (stereo unspecified)"
class = "top range"

[[record]]
compound = "FC(F)Oc1ccc2c(Cc3c(Cl)cncc3Cl)nncc2c1OC1CCCC1"
class = "center range"

